Entries and their measured IC50 follow.
system: HCV replicon 1AQ30D; test: microbe, parasite or virus in culture; format: cell-based, Hepatitis C virus (HCV); conditions: Hepatitis C virus, read-out: 1A Q30D IC50 (nM), replicon 1AQ30D; Replicon Assay B

molecule	experimentalResult
COC(=O)N[C@H](C(=O)N1CCC[C@H]1c1ncc(-c2cc(F)c3c(c2)OC(c2ccc(C(=O)N(C)C)s2)n2c-3cc3cc(-c4cnc([C@@H]5CCCN5C(=O)[C@@H](NC(=O)OC)C(C)C)[nH]4)ccc32)[nH]1)C(C)C (single isomer, unassigned)	1.11 nM

Using the record for COC(=O)N[C@H](C(=O)N1CCC[C@@H]1c1ncc(-c2cc(F)c3c(c2)OC(c2ccc(C(C)C)s2)n2c-3cc3cc(-c4c[nH]c([C@@H]5CCCN5C(=O)[C@H](NC(=O)OC)C5C[C@@H](C)O[C@@H](C)C5)n4)ccc32)[nH]1)C(C)C (some centres unmarked) , report its IC50.
0.05 nM

Using the record for CCCc1ccc(C2Oc3cc(-c4cnc([C@@H]5CCCN5C(=O)[C@@H](NC(=O)OC)C(C)C)[nH]4)cc(F)c3-c3cc4cc(-c5cnc([C@@H]6CCCN6C(=O)[C@@H](NC(=O)OC)C(C)C)[nH]5)ccc4n32)s1 (some centres unmarked) , report its IC50.
0.16 nM

Using the record for COC(=O)NC(C(=O)N1CCC[C@H]1c1ncc(-c2ccc3c(c2)cc2n3C(c3ccc(C4CC4)s3)Oc3cc(-c4cnc([C@@H]5CCCN5C(=O)[C@@H](NC(=O)OC)C(C)C)[nH]4)cc(F)c3-2)[nH]1)C1C2COCC21 (single isomer, unassigned) , report its IC50.
0.133 nM

Using the record for COC(=O)NC(C(=O)N1CCC[C@H]1c1ncc(-c2ccc3c(c2)cc2n3C(c3ccc(CC4CC4)s3)Oc3cc(-c4cnc([C@@H]5CCCN5C(=O)[C@@H](NC(=O)OC)C(C)C)[nH]4)cc(F)c3-2)[nH]1)C1C[C@@H](C)O[C@@H](C)C1 (single isomer, unassigned) , report its IC50.
0.315 nM

Using the record for COC(=O)N[C@H](C(=O)N1CCC[C@H]1c1ncc(-c2cc(F)c3c(c2)OC(c2ccc(C(C)(C)O)s2)n2c-3cc3cc(-c4cnc([C@@H]5CCCN5C(=O)[C@@H](NC(=O)OC)C(C)C)[nH]4)ccc32)[nH]1)C(C)C (single isomer, unassigned) , report its IC50.
0.5 nM

Using the record for COC(=O)NC(C(=O)N1[C@@H]2C[C@@H]2C[C@H]1c1ncc(-c2ccc3c(c2)cc2n3C(c3ccc(C4CC4)s3)Oc3cc(-c4cnc([C@@H]5CCCN5C(=O)[C@@H](NC(=O)OC)C(C)C)[nH]4)cc(F)c3-2)[nH]1)C1CCOC(C)(C)C1 (some centres unmarked) [Compound 275] , report its IC50.
0.023 nM

Using the record for COC(=O)NC(C(=O)N1CCC[C@H]1c1ncc(-c2ccc3c(c2)cc2n3C(c3ccc(C4CCC4)s3)Oc3cc(-c4cnc([C@@H]5CCCN5C(=O)[C@@H](NC(=O)OC)C(C)C)[nH]4)cc(F)c3-2)[nH]1)C1C[C@@H](C)O[C@@H](C)C1 (some centres unmarked) , report its IC50.
0.0221 nM

// provenance: patent US20160257697A1
